Hello, the source for this data is patent US20190076507A1, in case you need it.

- assay.target: HbO2 (Homo sapiens, UniProt P68871+P69905)
- Construct: The Hb released by hemolysis was filtered and collected, with the red blood cell membrane components (stroma) separated and removed; from tissue; host or cells: human red blood cells (expired donated blood); heat-treated, nanofiltered, purified and concentrated HbCO, photoconverted to HbO2
- Sequence (P69905 2-142 limits assumed): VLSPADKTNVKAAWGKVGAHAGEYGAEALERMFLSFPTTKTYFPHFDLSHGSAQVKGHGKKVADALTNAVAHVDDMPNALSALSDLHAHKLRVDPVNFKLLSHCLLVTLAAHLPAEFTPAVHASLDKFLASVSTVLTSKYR
- Sequence (P68871 2-147 limits assumed): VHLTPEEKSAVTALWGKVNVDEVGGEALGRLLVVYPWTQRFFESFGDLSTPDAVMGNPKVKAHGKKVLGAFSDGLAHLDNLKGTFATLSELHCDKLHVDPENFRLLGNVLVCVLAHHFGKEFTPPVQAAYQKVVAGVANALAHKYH
- protocol: Screening of suppressing effect of compounds against autoxidation of HbO2
- Assay type: biochemical
- measurement.conditions: HbO2 10 g/dL, antioxidant 1 g/dL, 37° C., 24 hours
readout.type: metHb conversion (%)
Numbers only, in %.

Here are 4 compounds together with their reported answers.
| compound | assay.target | metHb conversion (%) |
| --- | --- | --- |
| O=C[C@H](O)[C@@H](O)[C@H](O)[C@H](O)CO [D-glucose] | HbO2 (Homo sapiens, UniProt P68871+P69905) | 36 |
| Nc1ncnc2c1ncn2[C@@H]1O[C@H](COP(=O)(O)OP(=O)(O)OP(=O)(O)O)[C@@H](O)[C@H]1O [ATP] | HbO2 (Homo sapiens, UniProt P68871+P69905) | 44 |
| NC(=O)C1=CN([C@@H]2O[C@H](COP(=O)(O)OP(=O)(O)OC[C@H]3O[C@@H](n4cnc5c(N)ncnc54)[C@H](OP(=O)(O)O)[C@@H]3O)[C@@H](O)[C@H]2O)C=CC1 [NADPH] | HbO2 (Homo sapiens, UniProt P68871+P69905) | 37 |
| N=C(N)NCCC[C@H](N)C(=O)O [L-arginine] | HbO2 (Homo sapiens, UniProt P68871+P69905) | 38 |

Prompt: Input NCCCC[C@H](N)C(=O)O [L-lysine] , output reported metHb conversion (%).
Response: 34
